Where these numbers come from: PubChem BioAssay (Tox21)

- measurementDescription: qHTS assay for small molecule agonists of the p53 signaling pathway (AID 651631); also: nearly all actives have a fitted effect of over 15% in size
- condition: HCT-116 p53RE-bla reporter, beta-lactamase FRET ratio, 16 h; series mostly up to 73.3 µM
Records with an inconclusive call do not appear. Activity calls are given as the source filed them. Calls follow the shape of the full dose curve.
Form entry, call: pick from t (active), f (inactive)

[[record]]
linenotation = "CCCCCCC(C)(C)C(=O)O"
class = "f"

[[record]]
linenotation = "CC[N+](CC)(CCNC(=O)C(=O)NCC[N+](CC)(CC)Cc1ccccc1Cl)Cc1ccccc1Cl"
class = "f"

[[record]]
linenotation = "CO/N=C(/C(=O)N[C@@H]1C(=O)N2C(C(=O)O)=C(COC(N)=O)CS[C@H]12)c1ccco1"
class = "f"

[[record]]
linenotation = "O=C=Nc1cccc(C(F)(F)F)c1"
class = "f"

[[record]]
linenotation = "CCC(=O)OC"
class = "f"


Ask: Dear all, I need the recorded test outcome for CCOC(=O)[C@H](CCc1ccccc1)N[C@@H](C)C(=O)N(CC(=O)O)C1Cc2ccccc2C1 , thank you.
Result: f

Ask: Dear all, I need the recorded test outcome for O=C(O)c1ccc(OCCCOc2ccc(C(=O)O)cc2)cc1 , thank you.
Result: f

====

- assayedTarget: Nuclear receptor subfamily 1 group I member 3 (Homo sapiens) (UniProt Q14994)
- Sequence (Q14994 whole entry, looked up): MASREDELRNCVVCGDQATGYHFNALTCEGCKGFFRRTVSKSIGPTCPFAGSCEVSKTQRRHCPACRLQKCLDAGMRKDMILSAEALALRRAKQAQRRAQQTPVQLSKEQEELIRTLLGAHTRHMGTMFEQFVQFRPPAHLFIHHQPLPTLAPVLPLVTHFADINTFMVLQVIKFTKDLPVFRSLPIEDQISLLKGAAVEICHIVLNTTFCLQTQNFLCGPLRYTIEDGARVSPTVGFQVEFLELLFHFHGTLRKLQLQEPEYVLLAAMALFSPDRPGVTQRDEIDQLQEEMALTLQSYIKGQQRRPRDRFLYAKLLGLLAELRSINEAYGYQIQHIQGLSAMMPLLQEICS
- measurementDescription: qHTS assay to identify small molecule antagonists of the constitutive androstane receptor (CAR) signaling pathway (AID 1224838);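 also: HepG2 cells stably expressing hCAR with CYP2B6 luciferase reporter stimulated by CITCO; nearly all actives have a fitted effect of over 40% in size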
- condition: HepG2-CYP2B6-hCAR luciferase, CITCO-stimulated, 24 h; series mostly up to 92.4 µM
- Source text: U.S. Tox21 Program National Center for Advancing Translational Sciences [NCATS] NIH Chemical Genomics Center [NCGC] U.S. Environmental Protection Agency [EPA] National Institutes of Environmental Health Sciences [NIEHS] National Toxicology Program [NTP] U.S. Food and Drug Administration [FDA] […] Tox21 Assay Protocol Summary: A double-stable (hCAR and CYP2B6-2.2kb) transfected cell line, derived from human hepatoma (HepG2) cells, was utilized for the duration of the quantitative high-throughput screens. […]
Inconclusive results are not listed. Active and inactive are the calls of the source. Calls come from the whole dose curve; as a rule, active = well fitted inhibition curve with a large enough effect in the repeat runs; inconclusive = weak or mixed curves, or effect the other way; inactive = no such curve, though single readings can be large or run the other way.
Form entry, call: pick from active, inactive

[[record]]
linenotation = "Cc1cc(=O)c2c(O)c3c(O)cc(=O)c4c3c3c(cc(O)c1c23)C(C)(C)C=4O"
class = "active"

[[record]]
linenotation = "O=C(O)C[C@H](NC(=O)OCc1ccccc1)C(=O)O"
class = "inactive"

[[record]]
linenotation = "c1ccc2c(c1)CCc1ccccc1N2"
class = "inactive"

[[record]]
linenotation = "CC(C)(C)C(=O)C(=O)O"
class = "inactive"

[[record]]
linenotation = "CN1C(=O)OC(C)(C)C1=O"
class = "inactive"


Ask: Dear all, I need the recorded test outcome for CNC(=O)c1cnn(-c2nc(N)c3ncn([C@@H]4O[C@H](CO)[C@@H](O)[C@H]4O)c3n2)c1 , thank you.
Result: inactive

Ask: Dear all, I need the recorded test outcome for CC/C=C1/OC(=O)c2ccccc21 , thank you.
Result: inactive

Ask: Dear all, I need the recorded test outcome for CC(CO)CO , thank you.
Result: inactive

====

- measurementDescription: qHTS assay to identify small molecule antagonists of the retinoid-related orphan receptor gamma (ROR-gamma) signaling pathway - cell viability counter screen (AID 1159520); also: nearly all actives have a fitted effect of over 50% in size
- condition: Tet-on RORgamma CHO cells viability, ATP luminescence, 16 h; series mostly up to 92.4 µM
Inconclusive results are not listed. Activity calls are given as the source filed them. Calls follow the shape of the dose curve; as a rule, active = well fitted cell-killing curve with a large enough effect in the repeat runs; inconclusive = weak or mixed curves, or effect the other way; inactive = no such curve, though single readings can be large or run the other way.
Form entry, call: pick from 1.0 for active, 0.0 for inactive

Ask: Dear all, I need the recorded test outcome for O=Cc1c2ccccc2c(Cl)c2ccccc12 , thank you.
Result: 0.0

Ask: Dear all, I need the recorded test outcome for CO[C@]1(NC(=O)CSC(F)F)C(=O)N2C(C(=O)O)=C(CSc3nnnn3CCO)CO[C@H]21 , thank you.
Result: 0.0

Ask: Dear all, I need the recorded test outcome for CC(C)=CCC/C(C)=C/CC/C(C)=C/C(=O)OCC(=O)[C@@]1(O)CC[C@H]2[C@@H]3CCC4=CC(=O)C=C[C@]4(C)[C@H]3[C@@H](O)C[C@@]21C , thank you.
Result: 0.0

Ask: Dear all, I need the recorded test outcome for CC(=O)c1cc2ccccc2s1 , thank you.
Result: 0.0

Ask: Dear all, I need the recorded test outcome for C[C@]12CC[C@@H]3c4ccc(O)cc4CC[C@H]3[C@@H]1CC[C@@H]2OC(=O)CCC1CCCC1 , thank you.
Result: 1.0
